# ASSAYED TARGET: USP1/UAF1 (Homo sapiens (Human), UniProt O94782)
# Sequence (O94782 whole entry): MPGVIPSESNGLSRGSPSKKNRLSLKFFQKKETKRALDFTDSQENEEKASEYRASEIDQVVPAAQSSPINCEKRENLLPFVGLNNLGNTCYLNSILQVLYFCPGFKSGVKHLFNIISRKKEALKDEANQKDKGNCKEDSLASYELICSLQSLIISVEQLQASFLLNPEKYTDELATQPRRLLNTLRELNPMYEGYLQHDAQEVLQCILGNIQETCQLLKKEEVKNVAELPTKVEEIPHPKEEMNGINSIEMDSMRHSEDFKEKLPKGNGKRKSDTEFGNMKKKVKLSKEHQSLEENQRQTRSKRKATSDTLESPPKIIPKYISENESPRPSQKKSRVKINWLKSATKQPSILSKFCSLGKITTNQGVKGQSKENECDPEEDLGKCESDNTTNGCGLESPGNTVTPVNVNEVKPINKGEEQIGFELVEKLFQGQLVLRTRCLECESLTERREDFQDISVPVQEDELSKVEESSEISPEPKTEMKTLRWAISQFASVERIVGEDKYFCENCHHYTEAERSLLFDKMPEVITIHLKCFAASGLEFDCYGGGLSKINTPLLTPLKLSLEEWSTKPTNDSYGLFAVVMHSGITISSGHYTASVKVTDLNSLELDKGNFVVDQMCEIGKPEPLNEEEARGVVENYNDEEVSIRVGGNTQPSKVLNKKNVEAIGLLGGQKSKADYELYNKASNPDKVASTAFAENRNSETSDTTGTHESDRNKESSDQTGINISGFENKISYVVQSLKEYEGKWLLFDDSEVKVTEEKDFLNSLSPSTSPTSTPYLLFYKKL
# Sequence (Q8TAF3 whole entry partner): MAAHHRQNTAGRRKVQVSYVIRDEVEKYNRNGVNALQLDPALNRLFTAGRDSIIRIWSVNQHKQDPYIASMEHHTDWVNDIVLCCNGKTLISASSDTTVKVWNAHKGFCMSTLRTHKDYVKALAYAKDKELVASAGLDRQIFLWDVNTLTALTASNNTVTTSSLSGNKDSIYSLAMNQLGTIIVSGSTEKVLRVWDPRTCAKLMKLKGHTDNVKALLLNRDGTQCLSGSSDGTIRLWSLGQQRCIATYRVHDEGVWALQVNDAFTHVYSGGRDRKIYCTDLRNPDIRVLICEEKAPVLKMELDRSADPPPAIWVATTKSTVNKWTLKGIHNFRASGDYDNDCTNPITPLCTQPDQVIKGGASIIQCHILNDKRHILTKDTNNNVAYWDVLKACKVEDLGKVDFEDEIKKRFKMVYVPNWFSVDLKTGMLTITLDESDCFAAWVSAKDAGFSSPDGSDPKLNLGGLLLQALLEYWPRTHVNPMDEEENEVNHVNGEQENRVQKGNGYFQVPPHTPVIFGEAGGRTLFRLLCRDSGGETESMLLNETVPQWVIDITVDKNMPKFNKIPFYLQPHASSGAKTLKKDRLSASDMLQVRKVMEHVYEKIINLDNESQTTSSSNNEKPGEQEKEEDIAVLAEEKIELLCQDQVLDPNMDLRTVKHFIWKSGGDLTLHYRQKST
# ASSAY PROCEDURE: Deubiquitination assay for USP1/UAF1 activity (ubiquitin-rhodamine 110)
# Assay type: biochemical
# MEASUREMENT PARAMETERS: Table 3; 0.05 nM USP1/UAF1, 150 nM ubiquitin-rhodamine
Kindly state IC50 for each of the entries shown.

# annotated cases, reported IC50 shown
molecule="COc1ncnc(C2CC2)c1-c1ncc2cnn(Cc3ccc(-c4cn(C)c(C(F)(F)F)n4)cc3)c2n1 [drawing 736]" assayed_target="USP1/UAF1 (Homo sapiens (Human), UniProt O94782)" observed_value="10 to 100 nM"
molecule="CCOc1cc(C(F)(F)F)nn1-c1ccc(Cn2ncc3cnc(-c4c(OC)ncnc4C4CC4)nc32)cc1 [drawing 735]" assayed_target="USP1/UAF1 (Homo sapiens (Human), UniProt O94782)" observed_value="< 10 nM"
molecule="Cc1ncnc(C(C)C)c1-c1ncc2cnn(Cc3ccc(-n4nc(C(F)(F)F)cc4C)cc3)c2n1 [drawing 776]" assayed_target="USP1/UAF1 (Homo sapiens (Human), UniProt O94782)" observed_value="10 to 100 nM"
molecule="COc1nc(C)nc(C2CC2)c1-c1ncc2cnn(Cc3ccc(-c4nc(C(F)(F)F)cn4C)cc3)c2n1 [drawing 760]" assayed_target="USP1/UAF1 (Homo sapiens (Human), UniProt O94782)" observed_value="10 to 100 nM"

Can you give me IC50 for all of these, one by one?
1. COc1ncnc(C2CC2)c1-c1ncc2cnn(Cc3ccc(-c4nc(C(F)(F)F)n(C)n4)cc3)c2n1 [drawing 778]
2. CN(C)c1ncnc(C2CC2)c1-c1ncc2cnn(Cc3ccc(-c4nc(C(F)(F)F)cn4C)cc3)c2n1
3. CCn1cc(C(F)(F)F)nc1-c1ccc([C@H](C)n2ncc3cnc(-c4c(OC)ncnc4C4CCC4)nc32)cc1 (single isomer, unassigned) [drawing 748]
4. Cc1cnn(C(C)C)c1-c1ncc2cnn(Cc3ccc(-n4nc(C(F)(F)F)cc4C)cc3)c2n1 [drawing 734]
5. COc1ncnc(C2CC2)c1-c1ncc2cnn(Cc3ccc(-c4nc(C(F)(F)F)cn4C)c(F)c3)c2n1 [drawing 746]
6. CNc1ncnc(C2CC2)c1-c1ncc2cnn(Cc3ccc(-c4nc(C(F)(F)F)cn4C)cc3)c2n1
7. COc1ncnc(C2CCC2)c1-c1ncc2cnn(Cc3ccc(-c4nc(C(F)(F)F)cn4C)cc3)c2n1 [drawing 749]

Completion:
1. 10 to 100 nM
2. > 200 nM
3. 10 to 100 nM
4. < 10 nM
5. 10 to 100 nM
6. 10 to 100 nM
7. 10 to 100 nM

Can you give me IC50 for all of these, one by one?
1. CC(C)Oc1ncnc(C2CC2)c1-c1ncc2cnn(Cc3ccc(-c4nc(C(F)(F)F)cn4C)cc3)c2n1 [drawing 756]
2. COc1ncnc(C2CC2)c1-c1ncc2cnn(Cc3ccc(-c4nc(C(F)(F)F)cn4C4COC4)cc3)c2n1 [drawing 770]
3. COc1ncnc(C2CC2)c1-c1ncc2cnn(Cc3ccc(-c4nc(C(F)(F)F)cn4CC(=O)N(C)C)cc3)c2n1
4. CCn1cc(C(F)(F)F)nc1-c1ccc(Cn2ncc3cnc(-c4c(OCCF)ncnc4C4CC4)nc32)cc1 [drawing 741]

Completion:
["10 to 100 nM", "10 to 100 nM", "> 200 nM", "10 to 100 nM"]
